Could you please report measured abundance fitness for the items listed next?
B1: Intersectin-1, residues 909 to 971; numbered along this chain, Q15811 (parent)
chain: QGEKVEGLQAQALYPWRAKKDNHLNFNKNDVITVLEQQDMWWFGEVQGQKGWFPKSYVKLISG

Variants of: B1
Assay Explanation: abundance fitness (aPCA) (normalised: wild type 0, dead -1); higher = more abundant; growth selection in yeast, the domain comes from the species named
Run Parameters: Homo sapiens
// response body must contain only the number

Provide abundance fitness value for the following variant: W52V
-0.944

Provide abundance fitness value for the following variant: L60V
-0.06

Provide abundance fitness value for the following variant: P15S
0.011

Provide abundance fitness value for the following variant: V5A
-0.008

Provide abundance fitness value for the following variant: Y14I
-0.058

Provide abundance fitness value for the following variant: D39M
-0.221

Provide abundance fitness value for the following variant: I61G
-0.207

Provide abundance fitness value for the following variant: I32H
-0.692

Provide abundance fitness value for the following variant: L8I
-0.136

Provide abundance fitness value for the following variant: P15L
-0.338

Provide abundance fitness value for the following variant: N25R
-0.177

Provide abundance fitness value for the following variant: I61D
-0.159

Provide abundance fitness value for the following variant: V5T
-0.237

Provide abundance fitness value for the following variant: W52T
-0.89

Provide abundance fitness value for the following variant: V58I
-0.451

Provide abundance fitness value for the following variant: I32D
-0.568

Provide abundance fitness value for the following variant: P54D
-0.721

Provide abundance fitness value for the following variant: M40W
-0.475

Provide abundance fitness value for the following variant: Q9K
-0.015

Provide abundance fitness value for the following variant: W16P
-0.691

Provide abundance fitness value for the following variant: N27G
-0.185

Provide abundance fitness value for the following variant: K19V
0.021
